Ref: patent US6057153A

# Test system: Substrate RNA (SUB-156)
# assay-overview: RNase P-mediated cleavage assay, single turnover conditions
# Assay type: biochemical, hepatitis B virus (HBV)
# details: 200 nM EGS, 20 nM substrate, saturating RNase P, 60 min
parameter-measured: RNase P-mediated cleavage activity compared to the all-RNA control

| substance | test-result |
| --- | --- |
| EGS-380: C56 in the T-loop substituted with rA, SEQ ID NO. 40 (guide AGAUGAUAGAAGGUUAGAAUCCUUCACGCCGC; Riboadenosine at tRNA position 56 of T-loop, rest of chemistry not given here) | effectively substituted |
| EGS-381: C56 in the T-loop substituted with rG, SEQ ID NO. 41 (guide AGAUGAUAGAAGGUUGGAAUCCUUCACGCCGC; Riboguanosine at tRNA position 56 of T-loop, rest of chemistry not given here) | effectively substituted |
